Tested on: UGT2B (heading: UGT2B4)
assay text: in vitro
condition set: BALB/c, mouse, pH 7.4
Listed next: entries and their corresponding activity.
reported metric: activity (%)

molecule: CC(C)=CCC[C@](C)(O[C@@H]1O[C@H](CO)[C@@H](O)[C@H](O)[C@H]1O)[C@H]1CC[C@]2(C)[C@@H]1[C@H](O)C[C@@H]1[C@@]3(C)CC[C@H](O)C(C)(C)[C@@H]3[C@@H](O)C[C@]12C [Ginsenoside F1]
reported metric: activity
unit label: %
readout value: 132
//
molecule: CC(=O)O[C@H](CC=C(C)C)C1=CC(=O)c2c(O)ccc(O)c2C1=O [Acetylshikonin]
reported metric: activity
unit label: %
readout value: 93
//
molecule: O=c1cc(-c2ccccc2)oc2cc(O)c(O)c(O)c12 [Baicalein]
reported metric: activity
unit label: %
readout value: 96
//
molecule: O=c1cc(-c2ccccc2)oc2cc(O)ccc12 [7-Hydroxyflavone]
reported metric: activity
unit label: %
readout value: 100

====

Listed next: entries and their corresponding % of control (UGT2B4 catalytic activity at 2-fold IC50).
Test system: UGT2B
assay text: p-nitrophenol glucuronidation activity in pooled human liver microsomes
condition set: pooled human liver microsomes; compound at estimated 2-fold IC50
reported metric: % of control (UGT2B4 catalytic activity at 2-fold IC50)

compound: COc1cc(C2Oc3ccc([C@H]4Oc5cc(O)cc(O)c5C(=O)[C@@H]4O)cc3OC2CO)ccc1O (stereo partly shown) [Isosilybin]
readout value: 107 % of control
--
compound: CC(C)=CCC[C@](C)(O[C@@H]1O[C@H](CO)[C@@H](O)[C@H](O)[C@H]1O)[C@H]1CC[C@]2(C)[C@@H]1[C@H](O)C[C@@H]1[C@@]3(C)CC[C@H](O)C(C)(C)[C@@H]3[C@@H](O)C[C@]12C [Ginsenoside F1]
readout value: 100 % of control
--
compound: CC(=O)O[C@H](CC=C(C)C)C1=CC(=O)c2c(O)ccc(O)c2C1=O [Acetylshikonin]
readout value: 100 % of control
--
compound: C[C@@H]1CC[C@H]2C(C)(C)[C@H]3C[C@@]12CC[C@@]3(C)O [Cedrol]
readout value: 98 % of control

====

Listed next: entries and their corresponding % of control (catalytic activity at 2-fold IC50).
Tested on: CYP3A
assay text: CYP3A catalytic activity (erythromycin N-demethylation) in pooled human liver microsomes
condition set: compound at estimated 2-fold IC50 (5 µM where none reported)
reported metric: % of control (catalytic activity at 2-fold IC50)

molecule: CCc1oc2ccccc2c1C(=O)c1cc(Br)c(O)c(Br)c1
tgt: CYP3A
readout value: 113 % of control

molecule: CC[C@H]1OC(=O)[C@H](C)[C@@H](O[C@H]2C[C@@](C)(OC)[C@@H](O)[C@H](C)O2)[C@H](C)[C@@H](O[C@@H]2O[C@H](C)C[C@H](N(C)C)[C@H]2O)[C@](C)(OC)C[C@@H](C)C(=O)[C@H](C)[C@@H](O)[C@]1(C)O
tgt: CYP3A
readout value: 91 % of control

molecule: C=C[C@@H]1C2=CCOC(=O)C2=CO[C@H]1O[C@@H]1O[C@H](CO)[C@@H](O)[C@H](O)[C@H]1O [Gentiopicroside]
tgt: CYP3A
readout value: 122 % of control

molecule: O=C1c2ccccc2C(=O)c2c1ccc(O)c2O
tgt: CYP3A
readout value: 98 % of control

molecule: COc1ccc(/C=C/c2cc(O)cc(O)c2)cc1O
tgt: CYP3A
readout value: 110 % of control

molecule: Nc1ccc(S(=O)(=O)Nc2ccnn2-c2ccccc2)cc1
tgt: CYP3A
readout value: 105 % of control

molecule: O=c1cc(-c2ccccc2)oc2cc(O)ccc12 [7-Hydroxyflavone]
tgt: CYP3A
readout value: 95 % of control

molecule: C[C@]12CC[C@H](O)CC1=CC[C@@H]1[C@@H]2CC[C@]2(C)C(n3cnc4ccccc43)=CC[C@@H]12
tgt: CYP3A
readout value: 114 % of control

====

Tested on: CYP3A
assay text: CYP3A catalytic activity (erythromycin N-demethylation) in mouse liver microsomes
condition set: mouse; compound at estimated 2-fold IC50 (5 µM where none reported)
reported metric: % of control (catalytic activity at 2-fold IC50)

compound: COc1ccc(/C=C/c2cc(O)cc(O)c2)cc1O
readout value: 144 % of control
//
compound: C[C@@H]1O[C@@H](O[C@H]2[C@H](Oc3cc(O)c(C(=O)CCc4ccc(O)cc4)c(O)c3)O[C@H](CO)[C@@H](O)[C@@H]2O)[C@H](O)[C@H](O)[C@H]1O [Naringin Dihydrochalcone]
readout value: 102 % of control
//
compound: CC[C@H]1OC(=O)[C@H](C)[C@@H](O[C@H]2C[C@@](C)(OC)[C@@H](O)[C@H](C)O2)[C@H](C)[C@@H](O[C@@H]2O[C@H](C)C[C@H](N(C)C)[C@H]2O)[C@](C)(OC)C[C@@H](C)C(=O)[C@H](C)[C@@H](O)[C@]1(C)O
readout value: 95 % of control
//
compound: C[C@]12CC[C@H](O)CC1=CC[C@@H]1[C@@H]2CC[C@]2(C)C(n3cnc4ccccc43)=CC[C@@H]12
readout value: 105 % of control
//
compound: O=C1C[C@@H](c2ccc(O)cc2)Oc2cc(O)cc(O)c21
readout value: 240 % of control
//
compound: O=C1c2ccccc2C(=O)c2c1ccc(O)c2O
readout value: 96 % of control
//
compound: C=C[C@@H]1C2=CCOC(=O)C2=CO[C@H]1O[C@@H]1O[C@H](CO)[C@@H](O)[C@H](O)[C@H]1O [Gentiopicroside]
readout value: 97 % of control
//
compound: C/C1=C/CC[C@H](C)C(=O)C[C@@H](C(C)C)C(=O)C1
readout value: 94 % of control
//
compound: O=c1cc(-c2ccccc2)oc2cc(O)ccc12 [7-Hydroxyflavone]
readout value: 90 % of control
//
compound: CC(=O)c1ccccc1O [2'-Hydroxyacetophenone]
readout value: 75 % of control
//
compound: CCc1oc2ccccc2c1C(=O)c1cc(Br)c(O)c(Br)c1
readout value: 97 % of control
//
compound: Nc1ccc(S(=O)(=O)Nc2ccnn2-c2ccccc2)cc1
readout value: 109 % of control

====

Tested on: CYP3A
assay text: CYP3A catalytic activity (erythromycin N-demethylation) in mouse liver microsomes
condition set: mouse liver microsomes; initial screen n=1; compounds without reported IC50 at 5 µM
Structures can show the parent of a compound that is named as a salt.
Listed next: entries and their corresponding Percent control catalytic activity at estimated 2-fold IC50.
reported metric: Percent control catalytic activity at estimated 2-fold IC50 (percent control)

compound: CC[C@H]1OC(=O)[C@H](C)[C@@H](O[C@H]2C[C@@](C)(OC)[C@@H](O)[C@H](C)O2)[C@H](C)[C@@H](O[C@@H]2O[C@H](C)C[C@H](N(C)C)[C@H]2O)[C@](C)(OC)C[C@@H](C)C(=O)[C@H](C)[C@@H](O)[C@]1(C)O
tgt: CYP3A
readout value: 81

compound: O=C(O)/C=C/c1ccc(Cn2ccnc2)cc1
tgt: CYP3A
readout value: 92

compound: O=C([O-])C(O)Cc1ccc(O)c(O)c1.[Na+] (stereo not shown) [Sodium Danshensu]
tgt: CYP3A
readout value: 107

compound: CC12CC3CC(C)(C1)CC(N)(C3)C2 [Memantine HCl]
tgt: CYP3A
readout value: 98

====

Tested on: CYP3A
assay text: CYP3A catalytic activity (erythromycin N-demethylation) in possum liver microsomes
condition set: possum; mainly at 5 µM or an estimated 2-fold IC50; not significantly different
reported metric: reduced catalytic activity of possum CYP3A, % of the control

compound: O=c1cc(-c2ccccc2)oc2cc(O)ccc12 [7-Hydroxyflavone]
readout value: ~ 35 % of the control
--
compound: CCc1oc2ccccc2c1C(=O)c1cc(Br)c(O)c(Br)c1 [Benzbromarone]
readout value: ~ 35 % of the control
--
compound: C=C[C@@H]1C2=CCOC(=O)C2=CO[C@H]1O[C@@H]1O[C@H](CO)[C@@H](O)[C@H](O)[C@H]1O [Gentiopicroside]
readout value: ~ 35 % of the control
--
compound: O=C1c2ccccc2C(=O)c2c1ccc(O)c2O [Alizarin]
readout value: ~ 35 % of the control
--
compound: C[C@]12CC[C@H](O)CC1=CC[C@@H]1[C@@H]2CC[C@]2(C)C(n3cnc4ccccc43)=CC[C@@H]12 [Galeterone]
readout value: ~ 35 % of the control

====

Tested on: CYP3A
condition set: avian; compound at estimated 2-fold IC50 (5 µM where none reported)
Listed next: entries and their corresponding % of control (catalytic activity at 2-fold IC50).
reported metric: % of control (catalytic activity at 2-fold IC50)

compound: O=C1c2ccccc2C(=O)c2c1ccc(O)c2O
tgt: CYP3A
readout value: 94 % of control

compound: Nc1ccc(S(=O)(=O)Nc2ccnn2-c2ccccc2)cc1
tgt: CYP3A
readout value: 110 % of control

compound: CCc1oc2ccccc2c1C(=O)c1cc(Br)c(O)c(Br)c1
tgt: CYP3A
readout value: 104 % of control

compound: CC(=O)c1ccccc1O [2'-Hydroxyacetophenone]
tgt: CYP3A
readout value: 102 % of control

compound: C/C1=C/CC[C@H](C)C(=O)C[C@@H](C(C)C)C(=O)C1
tgt: CYP3A
readout value: 99 % of control

compound: COc1ccc(/C=C/c2cc(O)cc(O)c2)cc1O
tgt: CYP3A
readout value: 101 % of control

compound: O=c1cc(-c2ccccc2)oc2cc(O)ccc12 [7-Hydroxyflavone]
tgt: CYP3A
readout value: 103 % of control

compound: CC[C@H]1OC(=O)[C@H](C)[C@@H](O[C@H]2C[C@@](C)(OC)[C@@H](O)[C@H](C)O2)[C@H](C)[C@@H](O[C@@H]2O[C@H](C)C[C@H](N(C)C)[C@H]2O)[C@](C)(OC)C[C@@H](C)C(=O)[C@H](C)[C@@H](O)[C@]1(C)O
tgt: CYP3A
readout value: 94 % of control

compound: C=C[C@@H]1C2=CCOC(=O)C2=CO[C@H]1O[C@@H]1O[C@H](CO)[C@@H](O)[C@H](O)[C@H]1O [Gentiopicroside]
tgt: CYP3A
readout value: 114 % of control
